# tested.system: Caspase-1 (Homo sapiens)
# assay.info: qHTS Assay for Allosteric/Competitive Inhibitors of Caspase-1;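 note: plate controls were vehicle for no effect and no substrate for full effect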
# experimental.context: Caspase-1 enzyme, Ac-WEHD-AFC fluorogenic rate; series mostly up to 57.5 µM
Among all 75,000 compounds or so, about 20 (0.03%) were called active. Another 1% or so got no clear call; they are omitted. Not all results are given here.
observable: activity change, negative = inhibition

Some solved cases for reference:
CCCN1[C@H](C(=O)OC)C[C@@]2(O)[C@@H](O)[C@@H](O)[C@@H](O)C[C@@H]12	inactive
CC(C)(C)c1ccc(OC2C=CC(C#Cc3ccccc3)OC2CO)cc1 (stereo not given)	-6.01% [at 11.5 µM] (inactive)
CC(CCO)Nc1nc2c([nH]1)c(=O)n(C)c(=O)n2C (stereo not given)	inactive
C=CCn1c(SCc2cc(C(=O)OC)c(C)o2)nnc1-c1ccncc1	inactive
CC(C)CN1CCc2nc(-c3ccccc3)c3c(c2C1)COC(C)C3 (stereo not given)	-0.646% [at 11.5 µM] (inactive)
CO[C@H]1COC(=O)[C@@H](C)NC(=O)C/C=C\[C@@H](C)[C@H](OC)COC(=O)C/C=C\[C@@H]1C	1.2% [at 11.5 µM] (inactive)
Cc1cccc(-c2cc(=O)c3cc(C)ccc3o2)c1	inactive
COc1ccc(/C=C/C(=O)c2ccc(OC)cc2O)cc1	-5.59% [at 11.5 µM] (inactive)
CC1OC(OCC2OC(Oc3c(-c4ccc(O)c(O)c4)oc4cc(O)cc(O)c4c3=O)C(O)C(O)C2O)[C@@H](O)C(O)C1O (stereo not given in full)	inactive

Next molecule, activity change, negative = inhibition to be filled in.
activity change, negative = inhibition for CC(C)CO ? inactive
